Target: T1, monkey CD22 on HEK293T-monkey CD22 cells (monkey)
T1 construct: full-length entry expressed on stably transfected HEK293T cells
T1 chain: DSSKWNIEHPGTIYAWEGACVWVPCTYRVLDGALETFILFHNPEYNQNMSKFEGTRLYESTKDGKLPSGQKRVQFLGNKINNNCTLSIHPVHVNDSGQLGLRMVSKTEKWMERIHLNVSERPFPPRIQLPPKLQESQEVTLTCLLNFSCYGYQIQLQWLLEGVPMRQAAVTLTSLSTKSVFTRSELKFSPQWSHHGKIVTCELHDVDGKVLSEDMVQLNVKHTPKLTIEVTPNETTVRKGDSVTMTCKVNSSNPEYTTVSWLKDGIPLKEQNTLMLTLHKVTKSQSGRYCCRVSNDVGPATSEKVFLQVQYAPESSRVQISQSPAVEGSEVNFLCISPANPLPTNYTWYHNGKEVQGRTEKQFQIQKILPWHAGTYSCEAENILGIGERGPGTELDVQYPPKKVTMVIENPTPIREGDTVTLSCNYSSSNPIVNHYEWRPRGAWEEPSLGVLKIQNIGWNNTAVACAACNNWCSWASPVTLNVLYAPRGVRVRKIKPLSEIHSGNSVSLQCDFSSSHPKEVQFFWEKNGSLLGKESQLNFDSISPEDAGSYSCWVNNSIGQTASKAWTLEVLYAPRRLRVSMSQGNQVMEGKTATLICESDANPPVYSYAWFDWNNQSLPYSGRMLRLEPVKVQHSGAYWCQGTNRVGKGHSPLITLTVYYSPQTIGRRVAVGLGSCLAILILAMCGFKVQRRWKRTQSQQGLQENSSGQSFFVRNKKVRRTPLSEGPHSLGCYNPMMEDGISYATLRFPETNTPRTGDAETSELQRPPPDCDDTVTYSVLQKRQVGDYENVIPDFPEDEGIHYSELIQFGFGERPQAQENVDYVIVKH
Experiment: FACS, HEK293T-monkey CD22 cells
Method: For suspension cell Raji, the medium supernatant was directly centrifuged and discarded, and the cell pellet was washed 2 times with PBS. […] Data analysis was performed by software (CellQuest) to obtain the mean fluorescence density (MFI)of the cells. […]
value-kind: Maximum mean fluorescence intensity (MFI)
The figure you give is taken to be in MFI; do not add the unit.

Solved entries (count: 2):
F1.105.11 (antibody, human IgG1, kappa, V domains shown, human-murine chimeric IgG1 kappa; VL name legible) VH: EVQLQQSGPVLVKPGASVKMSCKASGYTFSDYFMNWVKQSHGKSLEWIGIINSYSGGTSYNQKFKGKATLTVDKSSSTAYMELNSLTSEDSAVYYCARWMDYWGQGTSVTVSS VL: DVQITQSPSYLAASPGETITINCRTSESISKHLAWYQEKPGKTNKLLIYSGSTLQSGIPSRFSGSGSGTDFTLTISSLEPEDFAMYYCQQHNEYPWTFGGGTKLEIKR    7530
F1.267.9 (antibody, human IgG1, kappa, V domains shown, human-murine chimeric IgG1 kappa; VL name legible) VH: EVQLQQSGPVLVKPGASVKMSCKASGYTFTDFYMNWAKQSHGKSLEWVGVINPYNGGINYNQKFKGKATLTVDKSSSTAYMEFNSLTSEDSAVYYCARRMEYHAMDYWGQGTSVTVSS VL: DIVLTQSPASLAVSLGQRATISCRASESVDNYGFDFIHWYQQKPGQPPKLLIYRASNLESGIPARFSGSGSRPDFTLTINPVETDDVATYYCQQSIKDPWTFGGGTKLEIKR    15300

Could you now consider this next binder?
Give Maximum mean fluorescence intensity for F1.200.11 (antibody, human IgG1, kappa, V domains shown, human-murine chimeric IgG1 kappa) VH: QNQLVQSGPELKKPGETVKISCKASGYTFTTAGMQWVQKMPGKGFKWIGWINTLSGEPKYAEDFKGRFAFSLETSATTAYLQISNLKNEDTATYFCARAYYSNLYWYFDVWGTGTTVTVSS VL: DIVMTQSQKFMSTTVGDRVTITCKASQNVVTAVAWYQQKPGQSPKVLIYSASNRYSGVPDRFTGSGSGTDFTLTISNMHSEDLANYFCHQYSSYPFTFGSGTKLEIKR
16200
